Cited source for all entries: patent US20230348419A1

Test system: PANC-1
Assay: MTS cell viability assay
Assay type: cell-based, human
Conditions: 24 h; read-out: IC50 (μM) in the 24 h treatment PANC-1
MEASURED_ENDPOINT: IC50 (µM)
Quick reminder: number only, in µM, skip the unit.

Data request, read-out IC50, for CN(CCNc1ccnc2cc(Cl)ccc12)CCNc1ccnc2cc(Cl)ccc12 13.3

Now this one: CCCCCCCCCCCCCCCN(CCNc1ccnc2cc(Cl)ccc12)CCNc1ccnc2cc(Cl)ccc12 34.5

Now this one: CCCCCCCCCCCCCCN(CCNc1ccnc2cc(Cl)ccc12)CCNc1ccnc2cc(Cl)ccc12 10.4

Now this one: CCCCCCCCCCCCN(CCNc1ccnc2cc(Cl)ccc12)CCNc1ccnc2cc(Cl)ccc12 4.5

Now this one: CCCCCCCCCCCCCN(CCNc1ccnc2cc(Cl)ccc12)CCNc1ccnc2cc(Cl)ccc12 4.3

---

Test: Drug loading using BAQ13 NPs
Assay type: physicochemical
Details: drug or dye loaded in BAQ13 NPs, mass ratio
For each entry below, report its Drug-loading content value.
Quick reminder: number only, in %, skip the unit.

Data request, read-out Drug-loading content, for COc1cc([C@@H]2c3cc4c(cc3[C@@H](O[C@@H]3O[C@@H]5CO[C@@H](C)O[C@H]5[C@H](O)[C@H]3O)[C@H]3COC(=O)[C@H]23)OCO4)cc(OC)c1O [Etoposide] 50

Now this one: CCCCCCCCCCCCCCCCCCN1C(=CC=CC=CC2=[N+](CCCCCCCCCCCCCCCCCC)c3ccccc3C2(C)C)C(C)(C)c2ccccc21.[O-][Cl+3]([O-])([O-])[O-] [Free DiD] 50

Now this one: CC[C@]1(O)C[C@@H]2CN(CCc3c([nH]c4ccccc34)[C@@](C(=O)OC)(c3cc4c(cc3OC)N(C)[C@H]3[C@@](O)(C(=O)OC)[C@H](OC(C)=O)[C@]5(CC)C=CCN6CC[C@]43[C@@H]65)C2)C1 [Vinblastine] 50

---

For each entry below, report its Zeta Potential (mV) value.
Test: Nanoparticle characterization of BAQ NPs (DLS, TEM)
Format: physicochemical
Conditions: assembled NPs in water
Quick reminder: number only, in mV, skip the unit.

Data request, read-out Zeta Potential (mV), for CCCCCCCCCCCCCCCCN(CCNc1ccnc2cc(Cl)ccc12)CCNc1ccnc2cc(Cl)ccc12 40.4

Now this one: CCCCCCCCCCCCN(CCNc1ccnc2cc(Cl)ccc12)CCNc1ccnc2cc(Cl)ccc12 36.4

Now this one: CCCCCCCCCCCCCCCCCCN(CCNc1ccnc2cc(Cl)ccc12)CCNc1ccnc2cc(Cl)ccc12 39.5

Now this one: CCCCCCCCCCCCCCN(CCNc1ccnc2cc(Cl)ccc12)CCNc1ccnc2cc(Cl)ccc12 39.1

Now this one: CCCCCCCCCCCCCN(CCNc1ccnc2cc(Cl)ccc12)CCNc1ccnc2cc(Cl)ccc12 39.7

Now this one: CCCCCCCCCCCCCCCN(CCNc1ccnc2cc(Cl)ccc12)CCNc1ccnc2cc(Cl)ccc12 38.0

---

Assay: Nanoparticle characterization of BAQ NPs (DLS, TEM)
Type: physicochemical
Conditions: assembled NPs in water, DLS
MEASURED_ENDPOINT: PDI

Data request, read-out PDI, for CCCCCCCCCCCCCCCCN(CCNc1ccnc2cc(Cl)ccc12)CCNc1ccnc2cc(Cl)ccc12 [BAQ16] 0.082

Now this one: CCCCCCCCCCCCCCCCCCN(CCNc1ccnc2cc(Cl)ccc12)CCNc1ccnc2cc(Cl)ccc12 [BAQ18] 0.093

Now this one: CCCCCCCCCCCCN(CCNc1ccnc2cc(Cl)ccc12)CCNc1ccnc2cc(Cl)ccc12 [BAQ12] 0.069

Now this one: CCCCCCCCCCCCCN(CCNc1ccnc2cc(Cl)ccc12)CCNc1ccnc2cc(Cl)ccc12 [BAQ13] 0.097

Now this one: CCCCCCCCCCCCCCN(CCNc1ccnc2cc(Cl)ccc12)CCNc1ccnc2cc(Cl)ccc12 [BAQ14] 0.069

Now this one: CCCCCCCCCCCCCCCN(CCNc1ccnc2cc(Cl)ccc12)CCNc1ccnc2cc(Cl)ccc12 [BAQ15] 0.086
